Collected TGI values appear next to each entry.
Test system: SR leukemia
Assay: NCI tumour cell line growth inhibition, 48 h
PARAMETER MEASURED: TGI

Cc1ccccc1N(C)S(=O)(=O)c1ccccc1[N+](=O)[O-]	> 100 µM
O=P(O)(Cc1ccccc1)OCC1(O)OCC(O)C(O)C1O (stereo not given)	> 10 µM
Cc1cc2oc(=O)[nH]c(=S)c2c(C)c1C	> 100 µM
COC(=O)C1(O)c2ccccc2N=C2C(=O)c3ccccc3N21 (stereo not given)	> 100 µM
N#CS/C(Cl)=C(/C(Cl)=C(Cl)Cl)[N+](=O)[O-]	53.9 µM
O=C1c2ccccc2-c2c1c1ccccc1c(=O)n2CCCN1CCOCC1	> 100 µM
COc1ccc(/C=C\c2cc(OC)c(OC)c(OC)c2)cc1OCC(=O)Nc1nc2ccc(C(F)(F)F)cc2s1	> 100 µM
Cc1cc(C)nc(Nc2nc3ccc([N+](=O)[O-])cc3[nH]2)n1	> 100 µM
O=C(C(Br)Br)C(Br)C(Br)c1ccccc1 (stereo not given)	3.68 µM
C[C@]12CCC(=O)C(O)=C1CC[C@@H]1[C@@H]2CC[C@]2(C)C(=O)CC[C@@H]12	> 100 µM
